- assay-procedure: Pharmacokinetics of probe substrates in rats with or without poziotinib pre-treatment
- stated-conditions: male, Sprague-Dawley, rat, in vivo, po, 10 mg/kg, CLz/F, Treated group: oral probe cocktail (10 mg/kg; tolbutamide 1 mg/kg) after 7 days oral poziotinib 5 mg/kg, rats, n = 6
measured-endpoint: CL/F (mL/min/kg)
Answer format: numeric, mL/min/kg implied, no suffix.

Return CL/F for the following compound: Cc1ncc2n1-c1ccc(Cl)cc1C(c1ccccc1F)=NC2
139

====

Listed below: AUC(0-t) values for each entry.
- assay-procedure: in vivo
- stated-conditions: male, Sprague-Dawley, rat, in vivo, po, 10 mg/kg
Answer format: numeric, ng·h/mL implied, no suffix.

CCOc1ccc(NC(C)=O)cc1 :: 6320

Return AUC(0-t) for the following compound: CC(NC(C)(C)C)C(=O)c1cccc(Cl)c1 (centres unmarked)
405

====

- assay-procedure: Pharmacokinetics of probe substrates in rats with or without poziotinib pre-treatment
- stated-conditions: male, Sprague-Dawley, rat, in vivo, po, 10 mg/kg, Tmax, Treated group: oral probe cocktail (10 mg/kg; tolbutamide 1 mg/kg) after 7 days oral poziotinib 5 mg/kg, rats, n = 6
measured-endpoint: Tmax (min)
Answer format: numeric, min implied, no suffix.

Return Tmax for the following compound: Cc1ncc2n1-c1ccc(Cl)cc1C(c1ccccc1F)=NC2
34.8

====

- subject-of-test: UniProtKB P00176
- Sequence (P00176 1-491): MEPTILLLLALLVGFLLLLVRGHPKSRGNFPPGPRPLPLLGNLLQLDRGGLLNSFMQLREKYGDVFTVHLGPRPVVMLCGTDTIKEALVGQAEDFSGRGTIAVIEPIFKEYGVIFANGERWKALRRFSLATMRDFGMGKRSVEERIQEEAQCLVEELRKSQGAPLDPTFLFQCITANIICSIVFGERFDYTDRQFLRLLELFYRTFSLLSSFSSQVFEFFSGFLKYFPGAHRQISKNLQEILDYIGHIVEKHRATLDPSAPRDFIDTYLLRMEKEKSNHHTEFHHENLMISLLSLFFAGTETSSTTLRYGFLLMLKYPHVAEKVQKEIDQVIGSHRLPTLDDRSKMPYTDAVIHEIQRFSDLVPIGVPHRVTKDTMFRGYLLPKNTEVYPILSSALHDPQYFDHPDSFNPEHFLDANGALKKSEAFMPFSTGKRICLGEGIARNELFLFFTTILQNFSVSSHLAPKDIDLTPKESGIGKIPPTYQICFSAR
measured-endpoint: pKi
Note: pKi values are expressed as the negative base-10 logarithm of concentration in M.

Return pKi for the following molecule: C=CC(=O)N1CCC(Oc2cc3c(Nc4ccc(Cl)c(Cl)c4F)ncnc3cc2OC)CC1 [Poziotinib]
4.79

====

- subject-of-test: UniProt P08683
- Sequence (P08683 1-500): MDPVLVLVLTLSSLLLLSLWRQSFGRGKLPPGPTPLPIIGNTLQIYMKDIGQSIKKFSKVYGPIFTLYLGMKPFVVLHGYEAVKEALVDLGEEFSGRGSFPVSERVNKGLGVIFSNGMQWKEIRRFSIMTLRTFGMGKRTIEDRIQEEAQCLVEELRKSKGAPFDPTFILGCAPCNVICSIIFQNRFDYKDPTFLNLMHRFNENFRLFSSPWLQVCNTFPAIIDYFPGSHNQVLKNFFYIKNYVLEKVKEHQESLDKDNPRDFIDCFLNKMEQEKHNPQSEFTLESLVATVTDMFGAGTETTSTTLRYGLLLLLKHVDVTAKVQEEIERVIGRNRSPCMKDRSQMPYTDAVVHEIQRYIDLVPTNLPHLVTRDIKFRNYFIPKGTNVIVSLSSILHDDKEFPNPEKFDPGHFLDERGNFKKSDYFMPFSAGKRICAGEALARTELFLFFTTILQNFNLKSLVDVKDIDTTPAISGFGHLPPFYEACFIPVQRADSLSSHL
- assay-procedure: Cocktail method IC50 in rat liver microsomes, tolbutamide probe
- Format: in vitro ADME
- Set-up: from tissue; host or cells: rat liver microsomes, prepared in-house
- stated-conditions: 100 μM tolbutamide, cocktail, 30 min, read-out: IC50
measured-endpoint: IC50 (µM)
Answer format: numeric, µM implied, no suffix.

Return IC50 for the following molecule: C=CC(=O)N1CCC(Oc2cc3c(Nc4ccc(Cl)c(Cl)c4F)ncnc3cc2OC)CC1
20.2
